System: HBV rcDNA
Assay: HepDE19 assay with bDNA quantitation of HBV rcDNA
Format: cell-based, hepatitis B virus
Conditions: Hepatitis B virus, HepDE19, read-out: DE-19bDNA EC50 (μM), HepDE19 assay, inhibition of formation of rcDNA
// classify: if (EC50 < 0.5 µM) true else false

C[C@H](c1c[nH]c(=O)c2ccccc12)N(C)C(=O)Nc1cccc(F)c1	false

Hello, I'm reviewing records and need to know if EC50 of CC(c1c[nH]c(=O)c2ccccc12)N(CC1COC(C)(C)OC1)C(=O)Nc1ccccc1 (single isomer, unassigned) is below 0.5 µM. Could you check?
false

Hello, I'm reviewing records and need to know if EC50 of C[C@H](c1c[nH]c(=O)c2ccccc12)N(C)C(=O)Nc1ccnc(C(F)(F)F)c1 (single isomer, unassigned) is below 0.5 µM. Could you check?
false

Hello, I'm reviewing records and need to know if EC50 of "C[C@H](c1c[nH]c(=O)c2ccccc12)N(C)C(=O)Nc1ccc(F)c(C#N)c1" is below 0.5 µM. Could you check?
true

Hello, I'm reviewing records and need to know if EC50 of "C[C@H](c1c[nH]c(=O)c2ccccc12)N(C)C(=O)Nc1ccnc(Cl)c1" is below 0.5 µM. Could you check?
false

Hello, I'm reviewing records and need to know if EC50 of "COCCN(Cc1c[nH]c(=O)c2ccccc12)C(=O)Nc1ccc(F)c(Cl)c1" is below 0.5 µM. Could you check?
true

Hello, I'm reviewing records and need to know if EC50 of CCN(C(=O)Nc1ccc(F)c(Cl)c1)C(c1c[nH]c(=O)c2ccccc12)C(C)C (single isomer, unassigned) is below 0.5 µM. Could you check?
false

Hello, I'm reviewing records and need to know if EC50 of "O=C(Nc1ccc(F)c(Cl)c1)N(Cc1c[nH]c(=O)c2ccccc12)CC1CC1" is below 0.5 µM. Could you check?
true

Hello, I'm reviewing records and need to know if EC50 of CCN(C(=O)Nc1ccc(F)c(Cl)c1)C(c1ccccc1)c1c[nH]c(=O)c2ccccc12 (single isomer, unassigned) is below 0.5 µM. Could you check?
false
